src = ChEMBL document CHEMBL4513216

Kindly supply the reported cytotoxicity at 10 µM values for the records listed here.
Test: Toxicity liver stage against HepG2, at 10uM
Type: cell-based
Set-up: test concentration 10 uM, cell line HepG2-A16-CD81EGFP
Test Conditions: human, HepG2-A16-CD81EGFP cells; read-out: INHIBITION
# output: bare number, implied unit %

Query: cytotoxicity at 10 µM; subject: "O=C(c1cn(-c2ccccc2Cl)nn1)N1CCN(CCO)CC1"
-2.88

And the next one, "COC[C@@H]1CC[C@H]2[C@H](CCN2S(=O)(=O)c2ccc(C)cc2)O1" ?
-1.05

And the next one, Cc1noc(C)c1CNCC1Cn2nncc2CO1 (stereo unspecified) ?
-101

And the next one, O=S(=O)(N1CCOCC1)N1CCCCC1CCc1ccc(O)cc1 (stereo unspecified) ?
-4.44

And the next one, CC(C)(C)CNCC1(O)CCCN(Cc2ccccc2F)C1=O (stereo unspecified) ?
9.04

And the next one, "Cc1ccc(S(=O)(=O)N2CCC(S(C)(=O)=O)CC2)cc1C" ?
2.59

And the next one, "CC(=O)c1c(C)cc(C)c(CS(=O)(=O)c2nccn2C)c1C" ?
-4.28

And the next one, "O=C(c1cccnc1)N1C[C@@H](c2ccccc2)[C@@]2(CCNC2=O)C1" ?
-6.23

And the next one, "CC(=O)c1cccc(CN2CCCC23CCN(c2ccccn2)CC3)c1" ?
-15.4

And the next one, CC(C)(C)c1cc(NC(=O)CN2CCCC(Cn3cncn3)C2)on1 (stereo unspecified) ?
3.69

And the next one, "CCCN(CC1CC1)S(=O)(=O)c1ccc(NC(C)=O)cc1" ?
9.35

###

Test: Toxicity liver stage against HepG2, at 10uM
Type: cell-based
Set-up: test concentration 10 uM, cell line HepG2-A16-CD81EGFP
Test Conditions: human, HepG2-A16-CD81EGFP cells; read-out: INHIBITION
Kindly supply the reported cytotoxicity at 10 µM values for the records listed here.
# output: bare number, implied unit %

Query: cytotoxicity at 10 µM; subject: "Cc1ccsc1C(=O)N1C[C@@H]2CN(Cc3ccoc3)CCO[C@@H]2C1"
-1.19

And the next one, "CCc1nnc(Sc2nn3cc(C)nc3s2)n1C" ?
-3.64

And the next one, "O=C(c1ccoc1)N1CCO[C@@H]2CNC[C@@H]21" ?
-99.9

And the next one, "CC(C)NC(=O)[C@H]1C[C@H]2CN(C(=O)NC(C)C)C[C@@H]1O2" ?
-105

And the next one, CNC(=O)c1ccnc(CC2COc3c(cccc3OC)C2)c1 (stereo not given) ?
3.77

And the next one, "CN1CCN(C(=O)[C@@H]2CCO[C@@H]3CCN(c4ncccn4)C[C@@H]32)CC1" ?
-4.96

And the next one, "COc1ccccc1OCc1cc(C(=O)N2[C@H](C)CC[C@@H]2C)n[nH]1" ?
-2.01

And the next one, Cc1cc(C)n(C2CCCN(C(=O)c3ccn(C)c(=O)c3)C2)n1 (stereo not given) ?
-5.72

And the next one, "c1cnc(NC[C@H]2OC[C@@H]3CCN(Cc4nccs4)C[C@@H]32)nc1" ?
-3.38

And the next one, "O=S(=O)(C1CC1)N1CC[C@H](OCC2CC2)[C@@H]1Cc1cccnc1" ?
8.13
